biological target: HDAC2 (Homo sapiens, UniProt Q92769); construct: purchased Reaction Biology Corporation (assay run by the CRO); assay: HDAC2 inhibition, full IC50 measurement (Reaction Biology; fluorogenic p53 peptide RHKK(Ac)AMC); format: biochemical; conditions: Conc. 3.33E-06 M, t1
Sequence (Q92769 whole entry): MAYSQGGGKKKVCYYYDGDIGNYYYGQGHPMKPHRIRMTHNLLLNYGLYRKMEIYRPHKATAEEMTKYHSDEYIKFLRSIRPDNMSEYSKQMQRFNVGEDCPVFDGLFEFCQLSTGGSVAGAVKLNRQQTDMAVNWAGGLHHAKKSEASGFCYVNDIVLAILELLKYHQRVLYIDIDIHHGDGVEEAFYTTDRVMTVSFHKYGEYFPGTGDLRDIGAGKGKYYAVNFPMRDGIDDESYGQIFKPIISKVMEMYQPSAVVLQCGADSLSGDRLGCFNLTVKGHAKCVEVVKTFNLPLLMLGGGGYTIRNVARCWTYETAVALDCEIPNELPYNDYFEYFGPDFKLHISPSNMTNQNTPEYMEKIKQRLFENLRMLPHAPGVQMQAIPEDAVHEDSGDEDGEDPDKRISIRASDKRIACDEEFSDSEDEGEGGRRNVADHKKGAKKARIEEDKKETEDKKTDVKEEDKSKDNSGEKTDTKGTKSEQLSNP
Peptide text beside a SMILES is read from it.
HDAC2 activity raw data (signal) overview

Consider the following illustrative entries.
molecule	HDAC2 activity raw data (signal)
N=C(N)NCCC[C@@H]1NC(=O)[C@H](Cc2c[nH]c3ccccc23)NC(=O)[C@H](CC(=O)O)NC(=O)[C@@H](CO)NC(=O)[C@H](Cc2c[nH]c3ccccc23)NC(=O)[C@H](CCCCCS)NC(=O)[C@H](CCC(N)=O)NC1=O [des4.1.0, SHA-Trp-dSer-Asp-Trp-Arg-Gln] (HELM PEPTIDE1{D.W.R.Q.[O=C([C@H](CCCCCS)N[*:1])[*:2]].W.[dS]}$PEPTIDE1,PEPTIDE1,1:R1-7:R2$$$V2.0)	20013
NCCCC[C@H]1NC(=O)[C@H](CCC(N)=O)NC(=O)[C@H](CCC(=O)O)NC(=O)[C@@H]2CCCN2C(=O)[C@H](CC(N)=O)NC(=O)[C@H](CCCCCS)NC(=O)CNC(=O)[C@H](Cc2c[nH]c3ccccc23)NC1=O [des1.1.1, SHA-Asn-Pro-Glu-Gln-dLys-Trp-Gly] (HELM PEPTIDE1{E.Q.[dK].W.G.[O=C([C@H](CCCCCS)N[*:1])[*:2]].N.P}$PEPTIDE1,PEPTIDE1,1:R1-8:R2$$$V2.0)	91275

Shifting focus to the molecule that follows.
Entry CC(C)C[C@H]1NC(=O)[C@H](Cc2c[nH]c3ccccc23)NC(=O)[C@H](CCCCCS)NC(=O)[C@@H](Cc2ccc(O)cc2)NC(=O)[C@@H](C(C)C)NC(=O)[C@H](Cc2c[nH]cn2)NC(=O)CNC(=O)CNC(=O)[C@@H](CO)NC1=O [des2.2.0, SHA-Trp-dLeu-dSer-Gly-Gly-His-dVal-dTyr] (HELM PEPTIDE1{G.G.H.[dV].[dY].[O=C([C@H](CCCCCS)N[*:1])[*:2]].W.[dL].[dS]}$PEPTIDE1,PEPTIDE1,1:R1-9:R2$$$V2.0) : HDAC2 activity raw data (signal) on HDAC2 (Homo sapiens, UniProt Q92769) = 690169
